target: human CD3 (human, UniProt P07766 23-207; P04234 22-171; P09693 23-182); assay: cell-based or functional assay
Sequence (P07766 23-207, chain 1 of 3): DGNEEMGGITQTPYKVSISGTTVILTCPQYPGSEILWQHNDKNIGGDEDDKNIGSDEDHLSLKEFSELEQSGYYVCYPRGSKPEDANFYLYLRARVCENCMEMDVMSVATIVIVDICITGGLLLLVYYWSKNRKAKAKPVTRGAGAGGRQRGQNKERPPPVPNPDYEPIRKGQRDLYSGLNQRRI
Sequence (P04234 22-171, chain 2 of 3): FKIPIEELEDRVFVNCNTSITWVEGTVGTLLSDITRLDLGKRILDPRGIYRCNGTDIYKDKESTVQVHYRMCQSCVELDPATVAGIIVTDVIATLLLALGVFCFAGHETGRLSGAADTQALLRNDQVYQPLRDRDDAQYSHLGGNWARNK
Sequence (P09693 23-182, chain 3 of 3): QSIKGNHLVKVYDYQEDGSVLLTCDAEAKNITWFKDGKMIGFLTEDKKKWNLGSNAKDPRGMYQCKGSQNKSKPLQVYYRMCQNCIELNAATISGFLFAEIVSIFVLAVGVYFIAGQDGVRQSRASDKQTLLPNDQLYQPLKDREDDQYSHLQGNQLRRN
Rule: Top signal_Fold change (Jurkat-NFAT-luciferase activation, normalized to ch40-C12-C10-E9) of 0.9 fold or more gives yes (1); anything lower gives no (0).

- Binder: "hu40E9-L2H9 (antibody, V domains shown) VH: EVQLVQSGAEVKKPGSSVKVSCKASGYTFSSYVIHWVRQAPGQGLEWMGYINPYSDVIKYNEKFKGRVTLTSDKSTSTAYMELSSLRSEDTAVYYCARESFYSYDGFAYWGQGTLVTVSS VL: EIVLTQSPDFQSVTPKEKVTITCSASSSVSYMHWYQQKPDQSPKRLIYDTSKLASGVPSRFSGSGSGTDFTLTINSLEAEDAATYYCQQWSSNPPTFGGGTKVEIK"
  Answer Label: "no (0)"
- Binder: "hu40E9-L6H3 (antibody, V domains shown) VH: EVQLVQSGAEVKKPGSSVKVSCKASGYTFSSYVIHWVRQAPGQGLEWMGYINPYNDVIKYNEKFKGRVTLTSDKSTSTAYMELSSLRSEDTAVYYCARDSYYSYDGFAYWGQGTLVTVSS VL: EIVLTQSPDFQSVTPKEKVTITCSASSSVSYMHWYQQKPDQSPKRLIYDTSKLASGVPSRFSGSGSGTDFTLTINSLEAEDAATYYCQQWRSWPPTFGGGTKVEIK"
  Answer Label: "yes (1)"
- Binder: "hu40E9-L2H12 (antibody, V domains shown) VH: EVQLVQSGAEVKKPGSSVKVSCKASGYTFSSYVIHWVRQAPGQGLEWMGYINPYNDVIKYNEKFKGRVTLTSDKSTSTAYMELSSLRSEDTAVYYCARDDYYSYDGFAYWGQGTLVTVSS VL: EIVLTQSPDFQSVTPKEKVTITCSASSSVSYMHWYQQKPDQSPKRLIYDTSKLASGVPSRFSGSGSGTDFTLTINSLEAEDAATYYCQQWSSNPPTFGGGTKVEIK"
  Answer Label: "no (0)"

State whether the measured Top signal_Fold change (Jurkat-NFAT-luciferase activation, normalized to ch40-C12-C10-E9) reaches 0.9 fold, counting equality as reaching it, for hu40E9-L4H3 (antibody, V domains shown) VH: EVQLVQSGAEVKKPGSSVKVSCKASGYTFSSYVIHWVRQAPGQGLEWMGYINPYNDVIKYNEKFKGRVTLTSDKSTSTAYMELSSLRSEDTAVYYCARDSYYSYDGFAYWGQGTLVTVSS VL: EIVLTQSPDFQSVTPKEKVTITCSASSSVSYMHWYQQKPDQSPKRLIYDTSKLASGVPSRFSGSGSGTDFTLTINSLEAEDAATYYCQQWRSRPPTFGGGTKVEIK
yes (1)

State whether the measured Top signal_Fold change (Jurkat-NFAT-luciferase activation, normalized to ch40-C12-C10-E9) reaches 0.9 fold, counting equality as reaching it, for hu40E9-L5H8 (antibody, V domains shown) VH: EVQLVQSGAEVKKPGSSVKVSCKASGYTFSSYVIHWVRQAPGQGLEWMGYINPGNDVIKYNEKFKGRVTLTSDKSTSTAYMELSSLRSEDTAVYYCARESYSSYDGFAYWGQGTLVTVSS VL: EIVLTQSPDFQSVTPKEKVTITCSASSSVSYMHWYQQKPDQSPKRLIYDTSKLASGVPSRFSGSGSGTDFTLTINSLEAEDAATYYCQQWRSSPPTFGGGTKVEIK
no (0)
